Data provenance is ChEMBL document CHEMBL1201862.

tested on: A498; assay: NCI tumour cell line growth inhibition, 48 h
The source made the active and inactive calls. Cut-off read from the data, not from the text of the source: active = GI50 up to about 1.1 µM and inactive = higher.
Field 'call' accepts YES (active), NO (inactive)

stdin: Just curious, what result did NC(=S)N/N=C/C1NCCC2CCCCC21 (configuration not stated) get here?
stdout: YES

stdin: Just curious, what result did O=C(O)C(=O)/C=C\c1ccc(Cl)cc1 get here?
stdout: NO

stdin: Just curious, what result did COC(=O)C1(O)CC(=O)CCC1c1ccc(OC)cc1 (configuration not stated) get here?
stdout: NO

stdin: Just curious, what result did COc1cc2c(cc1OC)[C@@](C)(C(O)C(O)C(C)(C)O)NCC2 (some centres not stated) get here?
stdout: NO

More entries:
stdin: Just curious, what result did c1ccc(Sc2nc(Sc3ccccc3)nc(Sc3ccccc3)n2)cc1 get here?
stdout: NO

stdin: Just curious, what result did COc1ccc2c(c1)/c(=C/C#N)c1c3ccccc3[n+](C)n21 get here?
stdout: NO

stdin: Just curious, what result did O=C(O)CCC1COc2ccccc2O1 (configuration not stated) get here?
stdout: NO

###

tested on: T47D; experiment: NCI tumour cell line growth inhibition, 48 h
The source made the active and inactive calls. No stated cut-off is given here; in the data, active = GI50 up to about 1.1 µM and inactive = higher.
Field 'call' accepts label 1 for active, label 0 for inactive

Below are worked cases with known answers.
stdin: Just curious, what result did COc1ccc(-c2nc3c(C(=O)NCCN(C)C)cccc3c3ccccc23)cc1 get here?
stdout: label 0

stdin: Just curious, what result did CCOC(=O)C(C(=O)OCC)=C1NC2(c3ccccc3Nc3ccccc32)C(C#N)S1 (stereo unspecified) get here?
stdout: label 0

More entries:
stdin: Just curious, what result did N#CN1C2CCC1CC(=O)C2 get here?
stdout: label 0

stdin: Just curious, what result did C1=N\c2ccc(cc2)-c2ccc(cc2)/N=C\c2ccccc2OCc2cccc(n2)COc2ccccc2/1 get here?
stdout: label 0

stdin: Just curious, what result did COc1ccc(-c2oc3cc(O)cc(O)c3c(=O)c2OC)cc1 get here?
stdout: label 0

stdin: Just curious, what result did COc1ccc(/C=N/n2c(Cc3ccc(Cl)cc3)n[nH]c2=O)cc1 get here?
stdout: label 0

stdin: Just curious, what result did CCN(CC)CCCNc1nncc2c(C)c3[nH]c4ccc(OC)cc4c3cc12 get here?
stdout: label 1

stdin: Just curious, what result did c1ccc(-c2cc(-c3ccncc3)cc(-c3ccncc3)n2)cc1 get here?
stdout: label 0

stdin: Just curious, what result did O=C1NC(=S)NC(=O)C1=C(O)Nc1ccccc1 get here?
stdout: label 0

stdin: Just curious, what result did Nc1nc(Cl)cc(NCC2(CO)CC(=O)C2)n1 get here?
stdout: label 0

stdin: Just curious, what result did COC(=O)C(C)Sc1nc2cc(Cl)ccc2s1 (stereo unspecified) get here?
stdout: label 0

###

Exercise: for every item that follows, state its recorded GI50.
tested on: OVCAR-4; assay: NCI tumour cell line growth inhibition, 48 h
The source made the active and inactive calls. Cut-off read from the data, not from the text of the source: active = GI50 up to about 1.1 µM and inactive = higher.

# return GI50 for each item in the list
1. O=C(O)C(=O)/C=C\c1ccc(Cl)cc1
2. COC(=O)n1c(=O)nc2c3c(ncn21)Oc1c(c(-c2ccccc2)nn1-c1ccccc1)C3c1ccc(Cl)cc1 (stereo not given)
3. CN(C)/N=N/c1[nH]cnc1C(N)=O [DACARBAZINE]
4. O=C(O)CN(c1ccccc1)S(=O)(=O)c1ccc(Cl)cc1
5. O=[N+]([O-])c1ccc2c3ccccc3[s+]([O-])c2c1 (stereo not given)

stdout:
1. > 100 µM (inactive)
2. 2.39 µM (inactive)
3. 34.8 µM (inactive)
4. > 100 µM (inactive)
5. > 100 µM (inactive)
